Tested on: Echinochloa crus-galli (ECHCG)
testMethodNotes: Pre-emergence herbicidal activity, glasshouse pot test
Type: in vivo
conditionNotes: Echinochloa crus-galli, 312 h; Rate 250 g/ha; pre-emergence spray; evaluated after 13 days; read-out: Pre-emergence activity ECHCG (100=total damage to plant; 0=no damage to plant)
observable: pest or weed control at 250 g/ha
Give your result as the value with the unit written after it.

[ask] Param item = `CCc1ccc(Oc2nc3ccccc3s2)cc1C1=C(O)CC2(CCOCC2)CC1=O` ; retrieve measured pest or weed control at 250 g/ha.
[reply] 100%

[ask] Record: `CCc1ccc(Oc2ccc(Cl)cc2[N+](=O)[O-])cc1C1=C(O)C(C)(C)OC(C)(C)C1=O`
[reply] 60%

[ask] Record: `CCc1ccc(Oc2ccnc(Cl)c2)cc1C1=C(O)C(C)(C)OC(C)(C)C1=O`
[reply] 90%

[ask] Record: CCc1ccc(Oc2ccc(F)cc2)cc1C1=C(O)[C@H]2CC[C@H](C2)C1=O (single isomer, unassigned)
[reply] 100%

[ask] Record: `CCc1ccc(Oc2ccc(F)c(Cl)c2)cc1C1=C(O)[C@H]2CC[C@H](C2)C1=O`
[reply] 100%

[ask] Record: `CCc1ccc(Oc2ccc(C#N)c(C(F)(F)F)c2)cc1C1=C(O)C(C)(C)OC(C)(C)C1=O`
[reply] 100%

[ask] Record: `CCc1ccc(Oc2ccc(C(F)(F)F)cc2)cc1C1=C(O)C(C)(C)OC(C)(C)C1=O`
[reply] 100%

* * *

System: Alopecurus myosuroides (ALOMY)
testMethodNotes: Pre-emergence herbicidal activity, glasshouse pot test
Format: in vivo
conditionNotes: Alopecurus myosuroides, 312 h; Rate 250 g/ha; pre-emergence spray; evaluated after 13 days; read-out: Pre-emergence activity ALOMY (100=total damage to plant; 0=no damage to plant)
observable: pest or weed control at 250 g/ha (%)
// units = %; emit number, no label

[ask] Param item = `CCc1ccc(Oc2ccc(C(F)(F)F)cc2Br)cc1C1=C(O)CC(C)(C)CC1=O` ; retrieve measured pest or weed control at 250 g/ha.
[reply] 10

[ask] Record: `CCc1ccc(Oc2ncc(Cl)cc2F)cc1C1=C(O)C(C)(C)OC(C)(C)C1=O`
[reply] 100

[ask] Record: `CCc1ccc(Oc2nnc3cc(Cl)ccc3n2)cc1C1=C(O)C(C)(C)OC(C)(C)C1=O`
[reply] 10

[ask] Record: `CCc1ccc(Oc2nc3c(Cl)c(OC)ccc3s2)cc1C1=C(O)C(C)(C)OC(C)(C)C1=O`
[reply] 30

[ask] Record: `CCc1ccc(Oc2cncc(Cl)n2)cc1C1=C(O)C(C)(C)OC(C)(C)C1=O`
[reply] 0

[ask] Record: `CCc1ccc(Oc2nc3c(Cl)cc(Cl)cc3s2)cc1C1=C(O)[C@H]2CC[C@H](C2)C1=O`
[reply] 90

[ask] Record: `CC1(C)OC(C)(C)C(O)=C(c2cc(Oc3ccc(Cl)cc3Cl)ccc2C2CC2)C1=O`
[reply] 30

[ask] Record: `CCc1ccc(Oc2cc(C(F)(F)F)ccn2)cc1C1=C(O)C(C)(C)OC(C)(C)C1=O`
[reply] 50

* * *

System: Alopecurus myosuroides (ALOMY)
testMethodNotes: Post-emergence herbicidal activity, glasshouse pot test
Format: in vivo
conditionNotes: Alopecurus myosuroides, 312 h, rate 250 g/ha, evaluated after 13 days, glasshouse, read-out: Post-emergence activity ALOMY (100=total damage to plant; 0=no damage to plant)
observable: pest or weed control at 250 g/ha

[ask] Param item = `CCc1ccc(Oc2ccc(OC(F)(F)F)cc2)cc1C1=C(O)C(C)(C)OC(C)(C)C1=O` ; retrieve measured pest or weed control at 250 g/ha.
[reply] 100%

[ask] Record: `CCc1ccc(Oc2ccc(Cl)c(C)c2)cc1C1=C(O)C(C)(C)OC(C)(C)C1=O`
[reply] 20%

[ask] Record: `CCc1ccc(Oc2ccc(Br)cc2)cc1C1=C(O)CCCC1=O`
[reply] 30%

[ask] Record: `CCc1ccc(Oc2ccc(C(F)(F)F)cn2)cc1C1=C(O)CC2(CCOCC2)CC1=O`
[reply] 100%

[ask] Record: `CCc1ccc(Oc2ccc(Cl)cc2C#N)cc1C1=C(O)C(C)(C)OC(C)(C)C1=O`
[reply] 50%

[ask] Record: `CCc1ccc(Oc2ncc(Cl)cc2C(F)(F)F)cc1C1=C(O)CC2(CCOCC2)CC1=O`
[reply] 90%

[ask] Record: `CCc1ccc(Oc2ccc(C#N)c(Cl)c2)cc1C1=C(O)CC(C)(C)CC1=O`
[reply] 90%

[ask] Record: `CCc1ccc(Oc2nc3c(Cl)c(OC)ccc3s2)cc1C1=C(O)C(C)(C)OC(C)(C)C1=O`
[reply] 60%

[ask] Record: `CCc1ccc(Oc2ccc(Br)c(Cl)c2)cc1C1=C(O)[C@H]2CC[C@H](C2)C1=O`
[reply] 90%

[ask] Record: `CCc1ccc(Oc2nc3ccccc3o2)cc1C1=C(O)C(C)(C)OC(C)(C)C1=O`
[reply] 90%

[ask] Record: `CCc1ccc(Oc2cnc3cc(Cl)ccc3n2)cc1C1=C(O)CC(C)(C)CC1=O`
[reply] 100%

[ask] Record: `CCc1ccc(Oc2cnc3cc(Cl)ccc3n2)cc1C1=C(O)C(C)(C)OC(C)(C)C1=O`
[reply] 100%

[ask] Record: `CCc1ccc(Oc2cc(F)cc(F)c2C#N)cc1C1=C(O)C(C)(C)OC(C)(C)C1=O`
[reply] 20%

[ask] Record: `CCc1ccc(Oc2ccnc(Cl)c2)cc1C1=C(O)C(C)(C)OC(C)(C)C1=O`
[reply] 60%

[ask] Record: `CCc1ccc(Oc2cnc3cc(F)ccc3n2)cc1C1=C(O)C(C)(C)OC(C)(C)C1=O`
[reply] 100%

[ask] Record: `CCc1ccc(Oc2nc3ccc(Cl)cc3s2)cc1C1=C(O)CC(C)(C)CC1=O`
[reply] 100%

[ask] Record: `CCc1ccc(Oc2cc(F)c(C#N)c(F)c2)cc1C1=C(O)C(C)(C)OC(C)(C)C1=O`
[reply] 80%

[ask] Record: `CCc1ccc(Oc2ccc(F)cc2)cc1C1=C(O)CCCC1=O`
[reply] 0%

[ask] Record: `CCc1ccc(Oc2c(Cl)cc(C(F)(F)F)cc2Cl)cc1C1=C(O)C(C)(C)OC(C)(C)C1=O`
[reply] 60%

[ask] Record: `CCc1ccc(Oc2ccc(Cl)c(F)c2)cc1C1=C(O)CC2(CCOCC2)CC1=O`
[reply] 100%

[ask] Record: `CCc1ccc(Oc2nc3ccc(Cl)cc3s2)cc1C1=C(O)[C@@H]2CC[C@](C)(C1=O)C2(C)C`
[reply] 100%

[ask] Record: `CCc1ccc(Oc2nc3ccc(C)cc3s2)cc1C1=C(O)C(C)(C)OC(C)(C)C1=O`
[reply] 90%

[ask] Record: `CCc1ccc(Oc2ccc(Cl)cc2)cc1C1=C(O)C(C)(C)CCC1=O`
[reply] 0%

[ask] Record: `CCc1ccc(Oc2ccc(C#N)c(Cl)c2)cc1C1=C(O)[C@@H]2CC[C@](C)(C1=O)C2(C)C`
[reply] 90%

[ask] Record: `CCc1ccc(Oc2ccc(Br)cc2F)cc1C1=C(O)CC2(CCOCC2)CC1=O`
[reply] 90%

[ask] Record: `CCc1ccc(Oc2cnc3ccc(Br)cc3n2)cc1C1=C(O)CC2(CCOCC2)CC1=O`
[reply] 100%

[ask] Record: `CCc1ccc(Oc2nc(F)c(Cl)c(OC)c2Cl)cc1C1=C(O)C(C)(C)OC(C)(C)C1=O`
[reply] 20%

[ask] Record: `CCc1ccc(Oc2ccc([N+](=O)[O-])c(Cl)c2)cc1C1=C(O)[C@@H]2CC[C@](C)(C1=O)C2(C)C`
[reply] 50%

[ask] Record: `CCc1ccc(Oc2ccc(C#N)c(Cl)c2)cc1C1=C(O)CC2(CCOCC2)CC1=O`
[reply] 30%

[ask] Record: `CCc1ccc(Oc2nc3ccccc3s2)cc1C1=C(O)CC2(CCOCC2)CC1=O`
[reply] 100%

[ask] Record: `CCc1ccc(Oc2ccc(Cl)cc2)cc1C1=C(O)CCCC1=O`
[reply] 30%

[ask] Record: CCc1ccc(Oc2ccc(F)cc2)cc1C1=C(O)[C@H]2CC[C@H](C2)C1=O (single isomer, unassigned)
[reply] 20%

* * *

Tested on: Alopecurus myosuroides (ALOMY)
testMethodNotes: Pre-emergence herbicidal activity, glasshouse pot test
Type: in vivo
conditionNotes: Alopecurus myosuroides, 312 h; Rate 250 g/ha; pre-emergence spray; evaluated after 13 days; read-out: Pre-emergence activity ALOMY (100=total damage to plant; 0=no damage to plant)
Method: Seeds of a variety of test species were sown in standard soil in pots. […] After 13 days for pre and post-emergence, the test was evaluated (100=total damage to plant; 0=no damage to plant). […]
observable: pest or weed control at 250 g/ha
Give your result as the value with the unit written after it.

[ask] Query for Alopecurus myosuroides (ALOMY): what pest or weed control at 250 g/ha does the record show for `CCc1ccc(Oc2nc3ccc(OC)cc3s2)cc1C1=C(O)[C@@H]2CC[C@](C)(C1=O)C2(C)C` ?
[reply] 30%

[ask] Record: `CCc1ccc(Oc2ccc([N+](=O)[O-])cc2C#N)cc1C1=C(O)C(C)(C)OC(C)(C)C1=O`
[reply] 0%

[ask] Record: `CCc1ccc(Oc2cnc3cc(Cl)ccc3n2)cc1C1=C(O)CC2(CCOCC2)CC1=O`
[reply] 70%

[ask] Record: `CCc1ccc(Oc2ncc(C(F)(F)F)cc2Cl)cc1C1=C(O)CC(C)(C)CC1=O`
[reply] 90%

[ask] Record: `CCc1ccc(Oc2nc3c(Cl)cccc3s2)cc1C1=C(O)C(C)(C)OC(C)(C)C1=O`
[reply] 30%

[ask] Record: `CCc1ccc(Oc2nc3cc(OC)ccc3s2)cc1C1=C(O)C(C)(C)OC(C)(C)C1=O`
[reply] 30%

[ask] Record: `CCc1ccc(Oc2nccnc2Cl)cc1C1=C(O)C(C)(C)OC(C)(C)C1=O`
[reply] 10%

[ask] Record: `CCc1ccc(Oc2ncc(Cl)cc2Cl)cc1C1=C(O)[C@H]2CC[C@H](C2)C1=O`
[reply] 90%

[ask] Record: `CCc1ccc(Oc2ccc(Cl)cc2)cc1C1=C(O)CCCC1=O`
[reply] 40%

[ask] Record: `CCc1ccc(Oc2ccc(Cl)cc2F)cc1C1=C(O)CC(C)(C)CC1=O`
[reply] 70%

[ask] Record: `CCc1ccc(Oc2cnc3ccccc3n2)cc1C1=C(O)CC2(CCOCC2)CC1=O`
[reply] 100%

[ask] Record: `CCc1ccc(Oc2nc(Cl)c(Cl)cc2Cl)cc1C1=C(O)C(C)(C)OC(C)(C)C1=O`
[reply] 20%

[ask] Record: `CCc1ccc(Oc2ccc(C(F)(F)F)c(C#N)c2)cc1C1=C(O)[C@H]2CC[C@H](C2)C1=O`
[reply] 80%

[ask] Record: `CCc1ccc(Oc2ccc3cc(Cl)ccc3n2)cc1C1=C(O)[C@@H]2CC[C@](C)(C1=O)C2(C)C`
[reply] 50%

[ask] Record: `CCc1ccc(Oc2nc3c(Cl)cc(Cl)cc3s2)cc1C1=C(O)C(C)(C)OC(C)(C)C1=O`
[reply] 60%

[ask] Record: `CCc1ccc(Oc2ncc(Cl)cn2)cc1C1=C(O)CC2(CCOCC2)CC1=O`
[reply] 60%
